The reader will find reported inhibition values listed item by item below.
TARGET OF ASSAY: D(2) dopamine receptor (Homo sapiens) (UniProt P14416)
Sequence (P14416 whole entry): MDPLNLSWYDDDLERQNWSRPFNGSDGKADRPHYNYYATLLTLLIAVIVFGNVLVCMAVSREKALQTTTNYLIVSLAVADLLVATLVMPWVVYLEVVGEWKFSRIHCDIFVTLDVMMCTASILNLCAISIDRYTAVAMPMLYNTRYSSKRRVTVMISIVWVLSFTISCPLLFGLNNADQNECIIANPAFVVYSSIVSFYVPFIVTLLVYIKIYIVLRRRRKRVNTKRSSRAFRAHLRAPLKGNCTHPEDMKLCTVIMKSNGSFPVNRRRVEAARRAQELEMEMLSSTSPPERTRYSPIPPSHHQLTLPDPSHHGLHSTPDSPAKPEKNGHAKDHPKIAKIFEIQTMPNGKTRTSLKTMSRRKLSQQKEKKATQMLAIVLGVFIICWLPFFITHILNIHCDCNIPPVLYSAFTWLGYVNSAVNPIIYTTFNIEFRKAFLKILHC
PROCEDURE SUMMARY: Antagonist activity at human recombinant dopamine D2 long receptor expressed in CHOK1 cells coexpressing mitochondrial apoaequorin assessed as inhibition of agonist-induced effect at 50 uM after 15 mins by luminometric analysis relative to haloperidol
Format: cell-based
EXPERIMENTAL SETUP: CHO-K1

MOLECULE	UNIT TEXT	inhibition
O[C@@H](c1cc(C(F)(F)F)nc2c(C(F)(F)F)cccc12)[C@H]1CCCCN1 (relative stereo)	%	90
CC(N)C12CC3CC(CC(C3)C1)C2 (stereo unspecified)	%	41
CCc1cccc2c3c([nH]c12)C(CC)(CC(=O)O)OCC3 (stereo unspecified)	%	13
O=C1c2c(O)ccc(O)c2C(=O)c2c(NCCNCCO)ccc(NCCNCCO)c21	%	81
CC(CN1c2ccccc2Sc2ccccc21)N(C)C (stereo unspecified)	%	95
CN(C)CC/C=C1/c2ccccc2COc2ccc(CC(=O)O)cc21	%	52

----------
TARGET OF ASSAY: D(1A) dopamine receptor (Homo sapiens) (UniProt P21728)
Sequence (P21728 whole entry): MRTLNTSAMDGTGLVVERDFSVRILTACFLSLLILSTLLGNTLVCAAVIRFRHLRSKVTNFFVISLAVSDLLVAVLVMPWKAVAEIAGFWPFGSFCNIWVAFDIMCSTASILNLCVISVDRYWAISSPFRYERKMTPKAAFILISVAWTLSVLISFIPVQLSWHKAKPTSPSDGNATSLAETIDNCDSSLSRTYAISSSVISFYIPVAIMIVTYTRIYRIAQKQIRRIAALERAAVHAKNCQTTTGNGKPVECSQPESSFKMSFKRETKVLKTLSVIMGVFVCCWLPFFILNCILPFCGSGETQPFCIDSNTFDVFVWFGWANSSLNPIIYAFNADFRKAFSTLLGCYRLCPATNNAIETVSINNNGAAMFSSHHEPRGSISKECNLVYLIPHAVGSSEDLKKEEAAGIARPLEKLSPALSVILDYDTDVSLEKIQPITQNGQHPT
PROCEDURE SUMMARY: Agonist activity at human recombinant dopamine D1 receptor expressed in CHOK1 cells assessed as stimulation of cAMP accumulation at 100 uM after 30 mins by HTRF assay relative to SKF81297
Assay type: functional, cell-based
EXPERIMENTAL SETUP: CHO-K1

MOLECULE	TARGET OF ASSAY	Activity
O=C1c2c(O)ccc(O)c2C(=O)c2c(NCCNCCO)ccc(NCCNCCO)c21	D(1A) dopamine receptor (Homo sapiens) (UniProt P21728)	66%
COc1cc2nc(N3CCN(C(=O)C4COc5ccccc5O4)CC3)nc(N)c2cc1OC (centres undefined)	D(1A) dopamine receptor (Homo sapiens) (UniProt P21728)	-4.7%
CN(C)CCC=C1c2ccccc2C=Cc2ccccc21	D(1A) dopamine receptor (Homo sapiens) (UniProt P21728)	-4.7%
CCc1cccc2c3c([nH]c12)C(CC)(CC(=O)O)OCC3 (centres undefined)	D(1A) dopamine receptor (Homo sapiens) (UniProt P21728)	-1.9%
CN(C)CCCN1c2ccccc2CCc2ccc(Cl)cc21	D(1A) dopamine receptor (Homo sapiens) (UniProt P21728)	-4.5%
O=C(c1ccc(OCCN2CCCCC2)cc1)c1c(-c2ccc(O)cc2)sc2cc(O)ccc12	D(1A) dopamine receptor (Homo sapiens) (UniProt P21728)	-7.2%
C[C@@H]1O[C@@H]1P(=O)(O)O	D(1A) dopamine receptor (Homo sapiens) (UniProt P21728)	-1.2%
NC1=NCC2c3ccccc3Cc3ccccc3N12 (centres undefined)	D(1A) dopamine receptor (Homo sapiens) (UniProt P21728)	-1%
Nc1nc2[nH]cnc2c(=S)[nH]1	D(1A) dopamine receptor (Homo sapiens) (UniProt P21728)	0.2%

----------
TARGET OF ASSAY: D(1A) dopamine receptor (Homo sapiens)
PROCEDURE SUMMARY: Antagonist activity at human recombinant dopamine D1 receptor expressed in CHOK1 cells assessed as inhibition of agonist-induced cAMP accumulation at 100 uM preincubated for 10 mins prior to agonist addition measured after 30 mins by HTRF assay relative to SCH23390
Format: functional, cell-based
EXPERIMENTAL SETUP: CHO-K1
Is inhibition at least 30%? Then Met. If not, Not met.

COMPOUND	GROUP
CCc1cccc2c3c([nH]c12)C(CC)(CC(=O)O)OCC3 (configuration not stated)	Not met
NC1=NCC2c3ccccc3Cc3ccccc3N12 (configuration not stated)	Met
O=C1c2c(O)ccc(O)c2C(=O)c2c(NCCNCCO)ccc(NCCNCCO)c21	Not met
Nc1nc2[nH]cnc2c(=S)[nH]1	Not met
C#C[C@]1(O)CC[C@H]2[C@@H]3CCC4=CCCC[C@@H]4[C@H]3C(=C)C[C@@]21CC	Met
O=C(c1ccc(OCCN2CCCCC2)cc1)c1c(-c2ccc(O)cc2)sc2cc(O)ccc12	Met
C[C@@H]1O[C@@H]1P(=O)(O)O	Not met

Sourced from ChEMBL document CHEMBL3085742
